test system: Acinetobacter baumannii; test: Antimicrobial activity against Acinetobacter baumannii isolate 09987 after 16 to 20 hrs by broth micro dilution method; type: functional, organism-based
Calls of active or inactive are those of the source. The calls are words filed in the database; no cut-off is given here. Where a SMILES comes first, the peptide text is derived from it. Bridges are numbered along the chain shown (N, C = ends). [ ]: non-standard residue; d: D form. The star is where a group is joined. pGlu = O=C1CC[C@@H](C(=O)O)N1; X1 = CC(C)[C@H](C)C(=O)*; X2 = C(=C\c1ccccc1)/N*

| compound | Activity |
| --- | --- |
| CC(C)[C@H](N)C(=O)N/C=C/c1ccccc1 | inactive |
| CC(C)C[C@@H]1NC(=O)[C@@H]2CCCN2C(=O)[C@@H]2CCCN2C(=O)[C@@H](NC(=O)[C@@H]2CCC(=O)N2)CSSC[C@@H](C(=O)N2CCC[C@H]2C(N)=O)NC1=O ([pGlu]CPPLCP-NH2; disulfide 2-6) | inactive |
| CC[C@H](C)[C@@H]1NC(=O)[C@@H](NC(=O)[C@@H](C)C(C)C)CSSC[C@@H](C(=O)N/C=C/c2ccccc2)NC(=O)[C@H]([C@@H](C)CC)NC(=O)[C@H]([C@@H](C)CC)NC(=O)[C@H]([C@@H](C)CC)NC1=O (X1-CIIIIC-X2; disulfide 1-6) | inactive |
| CC[C@H](C)[C@H](NC(=O)[C@@H]1CCC(=O)N1)C(=O)N[C@@H](CC(C)C)C(=O)N[C@H]1CSSC[C@@H](C(=O)N/C=C/c2ccccc2)NC(=O)[C@H](Cc2ccccc2)NC(=O)[C@@H]2CCCN2C(=O)[C@@H]2CCCN2C1=O ([pGlu]ILCPPFC-X2; disulfide 4-8) | inactive |
